target: T1, human CD137-Fc recombinant protein (Acro Biosystems 41B-H5258) (human, UniProt Q07011 24-186); experiment: BLI (Octet RED384), CD137-Fc on Protein G sensor, 1:1 model
T1 construct: Bought protein; The Octet paragraph gives no catalogue number for its human CD137-Fc; also called hCD137-Fc; CD137-Fc tagged protein
pKd: −log10 of the molar value.
Listed here: items and their measured pKd.
METRIC_NAME: pKd

| BINDER | NUMERIC_VALUE |
| --- | --- |
| 003BB172-E01-4 (VHH, Human VH single domain antibody, monovalent) VHH: EVQLVESGGGLVQPGGSLRLSCAASGFTFSNYGMHWVRQAPGKGLEWVAVISNDGNTKTYADSVKGRFTISRDNSKNTLYLQMTSLRTEDTAVYYCAQDETTTVTASYYFDYWGQGTLVTVSS | 7.59 |
| 003BB172-E01-3 (VHH, Human VH single domain antibody, monovalent) VHH: EVQLVESGGGLVQPGGSLRLSCAASGFTFSNYGMHWVRQAPGKRLEWVAVISNDGNTKTYADSVKGRFTISRDNSKNMLYLQMNSLRTEDTAVYYCAQDETTTVTASYYFDYWGQGTLVTVSS | 7.61 |
| 003BB172-E01-2 (VHH, Human VH single domain antibody, monovalent) VHH: EVQLVESGGGLVQPGGSLRLSCAASGFTFSNYGMHWVRQAPGKRLEWVAVISNDGNTKTYADSVKGRFTISRDNSKNTLYLQMTSLRTEDTAVYYCAQDETTTVTASYYFDYWGQGTLVTVSS | 7.73 |
| 003BB172-E01-1 (VHH, Human VH single domain antibody, monovalent) VHH: EVQLVESGGGLVQPGGSLRLSCAASGFTFSNYGMHWVRQAPGKGLEWVAVISNDGNTKTYADSVKGRFTISRDNSKNMLYLQMTSLRTEDTAVYYCAQDETTTVTASYYFDYWGQGTLVTVSS | 7.75 |
